# Tested on: Escherichia coli
# measurement.description: Vmax in the peptidyltransferase reaction
# Assay type: functional
Outcome: 1 for Vmax of at least 0.5 pmol/min; 0 for anything lower.

These recorded examples may help you get a feel for the data.
• CC(=O)Nc1ccc(CC(N)C(=O)NC2C(CO)OC(n3cnc4c(N(C)C)ncnc43)C2O)cc1 (stereo not given) = 0
• CN(C)c1ncnc2c1ncn2C1OC(CO)C(NC(=O)C(N)Cc2ccc([N+](=O)[O-])cc2)C1O (stereo not given) = 0

Request: Does the reported Vmax for `COc1ccc(C[C@H](N)C(=O)N[C@H]2[C@@H](O)[C@H](n3cnc4c(N(C)C)ncnc43)O[C@@H]2CO)cc1` fall at or above the 0.5 pmol/min mark?
Response: 1

Request: Does the reported Vmax for CN(C)c1ncnc2c1ncn2C1OC(CO)C(NC(=O)C(N)Cc2ccc(N)cc2)C1O (stereo not given) fall at or above the 0.5 pmol/min mark?
Response: 1

Request: Does the reported Vmax for CCCC(=O)Nc1ccc(CC(N)C(=O)NC2C(CO)OC(n3cnc4c(N(C)C)ncnc43)C2O)cc1 (stereo not given) fall at or above the 0.5 pmol/min mark?
Response: 1

// data source = ChEMBL document CHEMBL1121798
